Each item that follows carries a reported emission maximum.
test: solvent given as SMILES; conditions: in Cc1ccccc1
Give a bare numeral; the unit nm is implied.

Reference set (3 entries):
- Molecular String: "Cc1ccc(-n2c(-c3ccccc3N)nc3c4ccccc4c4ccccc4c32)cc1"
  Quantity Name: "emission maximum"
  Recorded Value: 396
- Molecular String: "CCOC(=O)CN1C(=O)C2=C(c3ccc(N4CCCCC4)cc3)N(CC(=O)OCC)C(=O)C2=C1c1ccccc1"
  Quantity Name: "emission maximum"
  Recorded Value: 563
- Molecular String: "N#Cc1cc(-c2cc(C#N)c(-n3c4ccccc4c4ccccc43)cc2-n2c3ccccc3c3ccccc32)c(-n2c3ccccc3c3ccccc32)cc1-n1c2ccccc2c2ccccc21"
  Quantity Name: "emission maximum"
  Recorded Value: 453

Just so you know, measured emission maximum for CCCCCCCCCCCCn1cccc1/C=C/c1cc(OCCCC)c(/C=C/c2cccn2CCCCCCCCCCCC)cc1OCCCC came out at 472

---

Listed here are compounds together with their documented emission maximum.
test: solvent given as SMILES; settings: in CC#N
Could you give me the number in nm? Just the number is fine.

Worked set:
- Compound: "O=c1c2ccccc2n2c3ccccc3c(=O)c3cc(-c4ccccc4)cc1c32"
  emission maximum, nm: 475
- Compound: "CN1CCN(CCCN2c3ccccc3Sc3ccc(C(F)(F)F)cc32)CC1"
  emission maximum, nm: 470

// emission maximum lookup, compound = c1ccc2cc3cc(-c4cc(-c5nccs5)nc(-c5nccs5)c4)ccc3cc2c1 , result: 474

Lab book: emission maximum of CC1=N/C(=C\c2ccncc2)C(=O)N1C noted as 452

The recorded emission maximum for entry Cc1cccc2cc(-c3cc4cccc(C)c4oc3=O)oc12 equals 451

For record COC(=O)C(Cc1ccc2oc(-c3ccncc3)nc2c1)NC(=O)OC(C)(C)C (stereo not given) the listed emission maximum is 374.95

---

assay: solvent given as SMILES; details: in CC#N
Param threshold (500 nm) applies to emission maximum; output 1 (yes) when value >= threshold, 0 (no) when value < threshold.

- Molecular String: "CCOC(=O)c1ccccc1-c1c2ccc(=O)cc-2oc2cc(OC(=O)[C@H](CO[Si](C)(C)C(C)(C)C)NC(=O)OC(C)(C)C)ccc12"
  Assigned Category: "1 (yes)"
- Molecular String: "COc1ccc(/C=C/C2=CC(/C=C/c3ccc(OC)c4ccccc34)=[O+][B-](F)(F)O2)c2ccccc12"
  Assigned Category: "1 (yes)"
- Molecular String: "COc1cccc(-c2[nH]c(=O)n3c2-c2ccccc2C3=O)c1O"
  Assigned Category: "0 (no)"
- Molecular String: "CC(C)[Si]1(C(C)C)c2cc(C=O)ccc2-c2ccc(N(C)C)cc21"
  Assigned Category: "1 (yes)"
- Molecular String: "CC(=O)OC[C@@H]1O[C@H](n2cnc3c2N=CN2Cc4c[n+](C)c(C)nc4N=C32)[C@@H](O)[C@H]1O"
  Assigned Category: "0 (no)"
- Molecular String: "CCOC(=O)CN1C(=O)C2=C(c3ccc(N4CCCCC4)cc3)N(CC(=O)OCC)C(=O)C2=C1c1ccc(N2CCCCC2)cc1"
  Assigned Category: "1 (yes)"
- Molecular String: "COc1ccc2cc([C@H](C)C(=O)O)ccc2c1"
  Assigned Category: "0 (no)"

Next up:
stdin: # bool: emission maximum of COc1nc(Nc2ccc3c4cccc5cccc(c6cccc2c63)c54)nc(OC)n1 >= 500 nm
stdout: 0 (no)

---

assay: solvent given as SMILES; conditions: in CCOC(C)=O
Please assign F whenever emission maximum is at or above 500 nm, and T whenever it is below.

- Compound: "CC1=CC(C)=[N+]2C1=Cc1c3ccccc3c(C#Cc3ccsc3)n1[B-]2(F)F"
  Assigned Category: "F"
- Compound: "CCOC(=O)CN(CC(=O)OCC)c1ccc(-c2cc(-c3ccncc3)nc(-c3ccncc3)c2)cc1"
  Assigned Category: "T"
- Compound: "CCCCCCCCN1c2ccccc2Sc2cc(/C=C/c3ccc(N(c4ccc(/C=C/c5ccc6c(c5)Sc5ccccc5N6CCCCCCCC)cc4)c4ccc(/C=C/c5ccc(/C=C/c6ccc(N(c7ccc(/C=C/c8ccc(N(c9ccccc9)c9ccccc9)cc8)cc7)c7ccc(/C=C/c8ccc(N(c9ccccc9)c9ccccc9)cc8)cc7)cc6)c6nsnc56)cc4)cc3)ccc21"
  Assigned Category: "F"
- Compound: "CCC1=C(C)C2=Cc3c(I)c(I)cn3[B-](F)(F)[N+]2=C1C"
  Assigned Category: "F"
- Compound: "O=C1CC(c2cccc([N+](=O)[O-])c2)c2c(c3ccccc3c3nc4ccccc4nc23)O1 (stereo unspecified)"
  Assigned Category: "T"
- Compound: "Cc1c2ccncc2c(C)c2c1[nH]c1ccccc12"
  Assigned Category: "T"
- Compound: "CCCCCCOc1ccc(C#Cc2ccc(-c3ccc(-c4ccc(C#Cc5ccc(OCCCCCC)c(OCCCCCC)c5)s4)c4nsnc34)s2)cc1OCCCCCC"
  Assigned Category: "F"
- Compound: "CC1=[N+]2C(=C(NCc3ccccc3)c3ccc(C)n3[B-]2(F)F)C=C1c1cc2n(c1)[B-](F)(F)[N+]1=CC=CC1=C2c1c(C)cc(C)cc1C"
  Assigned Category: "F"
- Compound: "CCOC(=O)CN(CC(=O)OCC)c1ccc(-c2cc(-c3ccccn3)nc(-c3ccccn3)c2)cc1"
  Assigned Category: "T"
- Compound: "C(=C\\c1ccc(/C=C/c2ccc(N(c3ccccc3)c3ccccc3)cc2)c2nsnc12)/c1ccc(N(c2ccccc2)c2ccccc2)cc1"
  Assigned Category: "F"

stdin: Does Nc1c(-c2nn([C@H]3C[C@H](O)[C@@H](CO)O3)c3ncnc(N)c23)ccc2ccccc12 have emission maximum strictly under 500 nm?
stdout: T

stdin: Determine whether this compound shows emission maximum lower than 500 nm (ties excluded): COc1ccc(/C=C/C2=CC(/C=C/c3ccc(OC)c4ccccc34)=[O+][B-](F)(F)O2)c2ccccc12
stdout: F

stdin: A record lists COc1ccc2n1[B-](F)(F)[N+]1=C(SC#N)C=CC1=C2c1ccccc1 . Is its emission maximum below 500 nm?
stdout: F

---

emission maximum for assorted compounds
experiment: solvent given as SMILES; conditions: in c1cc(-c2cccc(-n3c4ccccc4c4ccccc43)c2)cc(-n2c3ccccc3c3ccccc32)c1
Field note: include the unit after the figure.

- Molecular String: "O=c1c2ccccc2n2c3ccccc3c(=O)c3cc(-c4ccccc4)cc1c32"
  emission maximum: "472 nm"
- Molecular String: "CC1(C)c2ccccc2N(c2ccc3c(c2)c2ccccc2c2nc4ccccc4nc32)c2ccccc21"
  emission maximum: "549 nm"
- Molecular String: "O=C(c1ccc(N2c3ccccc3Oc3ccccc32)cc1)c1cccc(C(=O)c2ccc(N3c4ccccc4Oc4ccccc43)cc2)c1"
  emission maximum: "541 nm"

Measured emission maximum, Cc1cc(C)c2c(c1)c1cc(C)cc(C)c1n2-c1ccc2c(c1)B(c1c(C(C)C)cc(C(C)C)cc1C(C)C)c1cc(-n3c4c(C)cc(C)cc4c4cc(C)cc(C)c43)ccc1N2c1ccccc1 : 451 nm

For reference, reported emission maximum for Cc1cc(-c2nc(-c3ccccc3)nc(-c3ccccc3)n2)ccc1-c1ccc2c(c1)C1(c3ccccc3-c3ccccc31)c1ccccc1N2c1ccccc1 stands at 450 nm

Looking up O=C(c1ccncc1)c1ccc(-n2c3ccccc3c3ccccc32)cc1 , I see its emission maximum listed as 457.34 nm

---

assay: solvent given as SMILES; conditions: in Cc1ccccc1
emission maximum reference
Use nm as the unit, but write only the number.

Recorded emission maximum, per entry:
- Molecular String: "O=C1c2ccc(N(c3ccc(-c4ccccc4)cc3)c3ccc(-c4ccccc4)cc3)cc2C(=O)c2ccc(N(c3ccc(-c4ccccc4)cc3)c3ccc(-c4ccccc4)cc3)cc21"
  Display Unit: "nm"
  Recorded Value: 629
- Molecular String: "CN(C)c1ccc(/C=C/c2ccnc(/C=C/c3ccc(N(C)C)cc3)n2)cc1"
  Display Unit: "nm"
  Recorded Value: 455
- Molecular String: "O=C(c1ccc(N2c3ccccc3Oc3ccccc32)cc1)c1ccc(N2c3ccccc3Oc3ccccc32)cc1"
  Display Unit: "nm"
  Recorded Value: 509
- Molecular String: "c1ccc(-c2nc3c(c4c2-c2ccccc2CC4)-c2ccccc2CC3)cc1"
  Display Unit: "nm"
  Recorded Value: 361
- Molecular String: "N#Cc1ccc(N2c3ccccc3C(c3ccccc3)(c3ccccc3)c3ccccc32)cc1"
  Display Unit: "nm"
  Recorded Value: 428
- Molecular String: "CCN(CC)c1ccc2cc(-c3csc(NC(C)=O)c3C#N)c(=O)oc2c1"
  Display Unit: "nm"
  Recorded Value: 448
- Molecular String: "O=C(c1ccc(N2c3ccccc3Oc3ccccc32)cc1)c1cccc(C(=O)c2ccc(N3c4ccccc4Oc4ccccc43)cc2)c1"
  Display Unit: "nm"
  Recorded Value: 566
- Molecular String: "Cc1cc(-c2ccc(-n3c4ccccc4c4ccccc43)cc2)nc(-c2ccc(-n3c4ccccc4c4ccccc43)cc2)n1"
  Display Unit: "nm"
  Recorded Value: 398

The record that follows has no emission maximum shown yet.
Measured emission maximum of COC(=O)c1ccc2ccc3cccc4ccc1c2c34 : 390
